- System: SF-268 CNS
- experiment-notes: NCI tumour cell line growth inhibition, 48 h; in the data active = GI50 below about 0.43 µM; inactive = the rest
In this exercise, the only acceptable responses are 1.0 for active, 0.0 for inactive

# input Hi team, can someone confirm the assay call for "COc1cc(-c2nccc3[nH]c(-c4cccc5[nH]ccc45)nc23)cc(OC)c1OC" ?
# output 1.0

# input Follow-up entry: CC(=O)NC1CCCN(O)C(=O)/C=C(/C)CCOC(=O)C(NC(C)=O)CCCN(O)C(=O)/C=C(/C)CCOC(=O)C(NC(C)=O)CCCN(O)C(=O)/C=C(/C)CCOC1=O.[Fe] (centres undefined)
# output 0.0

# input Follow-up entry: COc1ccc(C2c3cc4c(c(OC)c3CC3OCC(=O)C32)OCO4)cc1OC (centres undefined)
# output 1.0

# input Follow-up entry: "C=CC(=O)N1CC2(CC(n3nc(-c4ccc(Oc5ccccc5)cc4)c4c(N)ncnc43)C2)C1"
# output 0.0

# input Follow-up entry: CS(=O)/C(C#N)=C\C=C\c1cccc(Cl)c1 (centres undefined)
# output 0.0

# input Follow-up entry: "O=c1[nH]cc(CO)c(=O)[nH]1"
# output 0.0

# input Follow-up entry: "C=C1C(=O)O[C@H]2[C@H]1CC/C(COC(=O)c1cccc3ccccc13)=C\CC[C@@]1(C)O[C@@H]21"
# output 0.0

# input Follow-up entry: "CC(=O)Nc1c(I)c(C(=O)O)c(I)c(N(C)C(C)=O)c1I"
# output 0.0

# input Follow-up entry: "CCOP(=O)(CCN1CCN(CCCCCOc2cc3c(cc2OC)C(=O)N2CCC[C@H]2C=N3)CC1)OCC"
# output 0.0

Hey, just so you know, these numbers are from PubChem BioAssay (NCI).
